- System: RKO cells
- method notes: RKO Methylation Assay (In Cell Western for mono-methyl arginine and DNA content)
- Type: cell-based
- measurement context: Homo sapiens; RKO cells, 72 hours, mono-methyl arginine; single experiment or average of multiple experiments, Table 3a; read-out: In Cell Western data (Numerical, μM) EC30
quantity: log10 of EC30 (log10 of the value in µM)
Hi team, quick reminder: these entries are log10 of EC30 (µM).

Worked examples follow.
- molecule: "CNCCN(C)Cc1c[nH]nc1-c1cc(OCCCC(C)=O)cc(C(F)(F)F)c1 [Compound 49]"
  assayed system: "RKO cells"
  log10 of EC30: 0.53
- molecule: "CNCCN(C)Cc1c[nH]nc1-c1cc(Oc2ccccc2)cc(C(F)(F)F)c1 [Compound 36]"
  assayed system: "RKO cells"
  log10 of EC30: 0.34
- molecule: "CNCCN(C)Cc1n[nH]cc1-c1ccc(OCCCOC)c(C(F)(F)F)c1 [Compound 20]"
  assayed system: "RKO cells"
  log10 of EC30: 0.31
- molecule: "CNCCN(C)Cc1c[nH]nc1-c1cc(OCCc2ccccc2OC)cc(C(F)(F)F)c1 [Compound 50]"
  assayed system: "RKO cells"
  log10 of EC30: 0.64
- molecule: "CNCCN(C)Cc1c[nH]nc1-c1cc(OCCC(C)C)cc(C(F)(F)F)c1 [Compound 12]"
  assayed system: "RKO cells"
  log10 of EC30: 0.16
- molecule: "CCCOc1cc(-c2n[nH]cc2CN(C)CCNC)cc(C(F)(F)F)c1 [Compound 19]"
  assayed system: "RKO cells"
  log10 of EC30: 0.71
- molecule: "CNCCN(C)Cc1n[nH]cc1-c1ccc(OCCOC)c(C(F)(F)F)c1 [Compound 21]"
  assayed system: "RKO cells"
  log10 of EC30: -0.09
- molecule: "CCC(CC)Oc1cc(-c2n[nH]cc2CN(C)CCNC)cc(C(F)(F)F)c1 [Compound 47]"
  assayed system: "RKO cells"
  log10 of EC30: 0.43

Request the reported log10 of EC30 associated with CNCCN(C)Cc1c[nH]nc1-c1cc(Oc2ccncc2)cc(C(F)(F)F)c1 [Compound 38]
0.93

Note, next up: CNCCN(C)Cc1c[nH]nc1-c1cc(Oc2cccnc2)cc(C(F)(F)F)c1 [Compound 51]
0.84

Note, next up: CNCCN(C)Cc1c[nH]nc1-c1cc(Oc2ccccn2)cc(C(F)(F)F)c1 [Compound 52]
0.65

Note, next up: CNCCN(C)Cc1c[nH]nc1-c1cc(OCc2ccccc2)cc(C(F)(F)F)c1 [Compound 37]
0.70

Note, next up: CNCCN(C)Cc1n[nH]cc1-c1ccc(OCC(C)C)c(C(F)(F)F)c1 [Compound 18]
0.43

Note, next up: CNCCN(C)Cc1c[nH]nc1-c1cc(OCCCC(F)(F)F)cc(C(F)(F)F)c1 [Compound 48]
0.62

Note, next up: CC(C)Oc1ccc(-c2c[nH]nc2CN(C)CCN)cc1C(F)(F)F [Compound 8]
0.43

Note, next up: CNCCN(C)Cc1c[nH]nc1-c1cc(OCCOC)cc(C(F)(F)F)c1 [Compound 16]
0.35

Note, next up: CNCCN(C)Cc1c[nH]nc1-c1cc(OCCCOC)cc(C(F)(F)F)c1 [Compound 24]
0.60

Note, next up: CNCCN(C)Cc1n[nH]cc1-c1cc(OCCOC)cc(C(F)(F)F)c1 [Compound 30]
1.12

Note, next up: CCCOc1ccc(-c2c[nH]nc2CN(C)CCNC)cc1C(F)(F)F [Compound 28]
0.04
